Biological target: T1, ARHGAP21, Q5T5U3
T1 sequence (Q5T5U3 45-169, limits assumed, looked up): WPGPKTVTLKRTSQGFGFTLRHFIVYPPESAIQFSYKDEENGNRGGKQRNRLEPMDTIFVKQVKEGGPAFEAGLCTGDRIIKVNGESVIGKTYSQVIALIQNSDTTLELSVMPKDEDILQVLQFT
Test: holdup assay
Parameters: key: below the threshold = too weak to quantify, mostly under pKd 3.1 to 4
Details: plain residues with an end cap or a label only (N-terminal biotin on a linker: ttds)
Experimental endpoint: pKd

1. SGSRPSATVV [HPV73-E6, Q82005] | below the threshold
2. PVRVCEETSL [OTULIN, Q96BN8] | 4.2
3. EVVHTPETSV [SLC16A3, O15427] | below the threshold
4. SKPTRRETEV [HPV35-E6, P27228] | below the threshold
